- RUN_DESCRIPTION: Ocular pharmacokinetics of formulations, Example 20-4
- Type: in vivo, Dutch Belted rabbits
- CONDITION_INFO: Dutch Belted, rabbit, cornea, topical, 30 μL per eye of 6 mg/mL suspension, QD, pH 6, Group 6: 6 mg/mL Salt suspension, PSD 30 μm/XL, TRIS 0.60%, glycerol 2%, HEC 0.2%, HPMC 0.08%, VitK3 1 μM, pH 6, QD; Day 5, 1 hr post dose; read-out: Cornea concentration
- Protocol: The study design (Table 18-1) consisted of forty-nine (49) Dutch Belted rabbits, each receiving a 30 μL bilateral topical ocular dose. Ocular sampling occurred one hour following the first daily dose on Day 5 for all groups. Whole blood samples using K2EDTA as an anticoagulant were collected from all animals on Day 5, 1 hour post dose. The whole blood was placed on ice until samples were spun in a centrifuge to separate the plasma. […]
ASSAY_ENDPOINT: concentration at 1 h (µM)

COMPOUND	READING
Cl.NC(=O)c1c(OCc2c(F)cc(Br)cc2F)nsc1NC(=O)NCCCCN1CCCC1 [Compound-I, hydrochloride]	14.4
